All figures here come from patent US9561228B2.

System Under Test: MEK1 activated ERK1 (Homo sapiens, UniProt P27361)
Construct: purchased Millipore (Billerica, Mass.) 14-439-K
Sequence (P27361 whole entry): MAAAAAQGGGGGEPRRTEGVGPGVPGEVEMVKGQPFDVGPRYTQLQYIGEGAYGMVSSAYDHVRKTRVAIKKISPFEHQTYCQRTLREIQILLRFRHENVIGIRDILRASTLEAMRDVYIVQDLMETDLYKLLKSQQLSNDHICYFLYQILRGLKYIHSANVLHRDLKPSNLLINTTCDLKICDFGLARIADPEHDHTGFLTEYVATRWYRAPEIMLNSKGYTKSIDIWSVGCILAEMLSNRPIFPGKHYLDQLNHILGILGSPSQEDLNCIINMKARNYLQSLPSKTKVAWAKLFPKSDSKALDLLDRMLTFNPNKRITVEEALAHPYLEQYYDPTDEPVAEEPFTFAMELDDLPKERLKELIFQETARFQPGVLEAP
Protocol Description: Omnia continuous-read kinase assay for potency against MEK1 activated ERK1
Type: biochemical
Test Conditions: MEK1 activated ERK1, ATP at KM; read-out: ERK1 Omnia WT ATP KM IC50
pIC50: −log10 of the molar value.
Measured Property: pIC50

{"columns": ["Compound", "System Under Test", "pIC50"],
 "data": [
  ["CC(=O)N1CCC[C@H](Nc2ncc(C(F)(F)F)c(NC3C4C=CC(C4)C3C(=O)NC#N)n2)C1 (mixture of isomers)", "MEK1 activated ERK1 (Homo sapiens, UniProt P27361)", "< 6.00"],
  ["C=CC(=O)Nc1cc(C)ccc1Nc1nc(Nc2ccncc2C)ncc1Cl", "MEK1 activated ERK1 (Homo sapiens, UniProt P27361)", "6.30 to 7.00"]
]}

Exercise: Given C=CC(=O)Nc1ccccc1Nc1nc(Nc2ccc(N(CC)C(C)=O)cc2C(F)(F)F)ncc1Cl , state its recorded pIC50.
Solution: 6.00 to 6.30

Exercise: Next compound up: C=CC(=O)Nc1ccccc1Nc1nc(Nc2ccc(NC(=O)CCCC(=O)NCCCOCCOCCOCCCNC(=O)CCCC[C@H]3SC[C@H]4NC(=O)N[C@H]43)cc2OC)ncc1Cl
Solution: 6.00 to 6.30

* * *

System Under Test: MEK1 activated ERK1 (Homo sapiens)
Construct: purchased Millipore (Billerica, Mass.) 14-439-K
Protocol Description: Omnia continuous-read kinase assay for potency against MEK1 activated ERK1
Assay type: biochemical
Test Conditions: MEK1 activated ERK1, ATP at KM; read-out: ERK1 Omnia WT ATP KM IC50
Measured Property: IC50

Some molecules with known IC50 results, for comparison:
{"columns": ["Molecule", "System Under Test", "IC50"],
 "data": [
  ["C=CC(=O)Nc1ccccc1Oc1nc(NC(C)(C)C)ncc1C(N)=O [Compound I-267]", "MEK1 activated ERK1 (Homo sapiens)", "101 to 500 nM"],
  ["C=CC(=O)Nc1cc(C)ccc1Nc1nc(Nc2ccnc(Cl)c2)ncc1Cl [Compound I-230]", "MEK1 activated ERK1 (Homo sapiens)", "501 to 999 nM"],
  ["C=CC(=O)Nc1cc(C)ccc1Nc1nc(Nc2cc(C(N)=O)ccc2C)ncc1C(F)(F)F [Compound I-79]", "MEK1 activated ERK1 (Homo sapiens)", "101 to 500 nM"]
]}

Exercise: Fill in the blank: the reported IC50 of C=CC(=O)Nc1ccccc1Nc1nc(Nc2cc(C(=O)NOCCO)ccc2C)ncc1Cl [Compound I-198] is ____.
Solution: 101 to 500 nM

Exercise: // query: C=CC(=O)Nc1ccccc1Nc1nc(N[C@H]2CCCN(C(C)=O)C2)ncc1Cl [Compound I-115]
Solution: < 100 nM

Exercise: Next: C=C(C)C(=O)Nc1cc(F)ccc1Nc1nc(N[C@@H]2CCC[C@H](C(N)=O)C2)ncc1Cl (racemic) [Compound I-114]
Solution: > 1000 nM

Exercise: Moving on to C=C(C)S(=O)(=O)Nc1cc(F)ccc1Nc1nc(Nc2cc(C(N)=O)ccc2C)ncc1C(F)(F)F [Compound I-87]
Solution: 101 to 500 nM

* * *

Overview of recorded GI50 for various compounds
Tested on: HT-29 cells (colorectal adenocarcinoma)
Protocol Description: Inhibition of cancer cell proliferation, HT-29 (CellTiterGlo, 72 hours)
Format: cell-based
Test Conditions: Homo sapiens

{"columns": ["Compound", "GI50"],
 "data": [
  ["C=CC(=O)Nc1ccccc1Nc1nc(Nc2cc(OC)ncc2C)ncc1Cl [Compound I-240]", "< 100 nM"],
  ["C=CC(=O)Nc1cc(C)ccc1Nc1nc(Nc2cc(C(N)=O)ccn2)ncc1Cl [Compound I-238]", "101 to 500 nM"],
  ["C=CC(=O)Nc1ccccc1Nc1nc(Nc2ccc(N(CC)C(C)=O)cc2OC)ncc1Cl [Compound I-155]", "> 1000 nM"],
  ["C=CC(=O)N[C@@H]1CCCC[C@H]1Nc1nc(Nc2cc(C(=O)NOC)ccc2C)ncc1C(N)=O (racemic) [Compound I-256]", "> 1000 nM"],
  ["C=CC(=O)Nc1ccccc1Nc1nc(Nc2cc(C(=O)NOCCO)ccc2C)ncc1C(F)(F)F [Compound I-73]", "101 to 500 nM"]
]}

Exercise: # get_value(readout='GI50', item= C=CC(=O)Nc1ccccc1Oc1nc(NC(C)(C)C)ncc1C(N)=O [Compound I-267] )
Solution: > 1000 nM

Exercise: And the next one, C=CC(=O)Nc1ccccc1Nc1nc(Nc2cc(OC)cc(OC)c2)ncc1C(F)(F)F [Compound I-338] ?
Solution: < 100 nM

Exercise: Same again, this time with C=CC(=O)Nc1cc(C)ccc1Nc1nc(Nc2cc(C(=O)NC)c(F)cc2C)ncc1Cl [Compound I-233]
Solution: 101 to 500 nM

* * *

Readings of EC50 for the listed compounds
Tested on: ERK1/2 phosphorylation of p90RSK in HCT116 cells
Protocol Description: Detection of total and phospho-RSK by MSD ELISA (HCT116)
Type: cell-based
Test Conditions: Homo sapiens, HCT-116, read-out: ERK1/ERK2 PRSK HCT116 EC50

{"columns": ["Compound", "System Under Test", "Result"],
 "data": [
  ["C=CC(=O)Nc1cc(CN2CCN(C(C)=O)CC2)ccc1Nc1nc(Nc2cc(OC)ncc2C)ncc1C(F)(F)F [Compound I-381]", "ERK1/2 phosphorylation of p90RSK in HCT116 cells", "< 0.1 µM"],
  ["C=CC(=O)Nc1cc(OCC(=O)N2CCN(C(C)=O)CC2)ccc1Nc1nc(Nc2cc(OC)ncc2OC)ncc1C(F)(F)F [Compound I-415]", "ERK1/2 phosphorylation of p90RSK in HCT116 cells", "0.101 to 0.5 µM"],
  ["C=CC(=O)Nc1cc(C)ccc1Nc1nc(Nc2cc(OC)ncc2OC)ncc1C(F)(F)F [Compound I-406]", "ERK1/2 phosphorylation of p90RSK in HCT116 cells", "0.101 to 0.5 µM"],
  ["C=CC(=O)Nc1cc(C)ccc1Nc1nc(Nc2cc(N[C@H]3CC[C@@H](O)CC3)nc(OC)c2)ncc1C(F)(F)F [Compound I-326]", "ERK1/2 phosphorylation of p90RSK in HCT116 cells", "< 0.1 µM"],
  ["C=CC(=O)Nc1cc(C)c(C#N)cc1Nc1nc(NC2CCOCC2)ncc1C(F)(F)F [Compound I-397]", "ERK1/2 phosphorylation of p90RSK in HCT116 cells", "> 1 µM"]
]}

Exercise: Item C=CC(=O)Nc1ccccc1Nc1nc(Nc2cc(OC)nc(N3CCS(=O)(=O)CC3)c2)ncc1C(F)(F)F [Compound I-291] has what recorded EC50?
Solution: < 0.1 µM

Exercise: Also C=CC(=O)Nc1cc(C)c(F)cc1Nc1nc(Nc2nc(OC)ncc2Cl)ncc1C(F)(F)F [Compound I-374] ?
Solution: < 0.1 µM

Exercise: Another compound: C=CC(=O)Nc1cc(OC)ccc1Nc1nc(Nc2cc(OC)ncc2C)ncc1C(F)(F)F [Compound I-284]
Solution: < 0.1 µM

Exercise: Queued: C=CC(=O)Nc1cc(C)ccc1Nc1nc(Nc2cc(OC)nn2C)ncc1C(F)(F)F [Compound I-430]
Solution: 0.501 to 0.999 µM

Exercise: Now the same for C=CC(=O)Nc1cc(C)ccc1Nc1nc(Nc2c[nH]c(=O)cc2C)ncc1C(F)(F)F [Compound I-370]
Solution: 0.501 to 0.999 µM

Exercise: How about this compound: C=CC(=O)Nc1cc(O[C@H](C)C(N)=O)ccc1Nc1nc(Nc2cc(OC)ncc2C)ncc1C(F)(F)F [Compound I-413]
Solution: < 0.1 µM

Exercise: Also need C=CC(=O)Nc1ccccc1Nc1nc(Nc2cc(OC)cc(OC)c2)ncc1C(F)(F)F [Compound I-338] , thanks.
Solution: < 0.1 µM

Exercise: Please do the same for C=CC(=O)Nc1cc(OCC(=O)N2CCN(S(C)(=O)=O)CC2)ccc1Nc1nc(Nc2cc(OC)ncc2C)ncc1C(F)(F)F [Compound I-405] as well.
Solution: < 0.1 µM

Exercise: Now consider C=CC(=O)Nc1cc(C)ccc1Nc1nc(NC2CCC(=O)NC2)ncc1C(F)(F)F (racemic) [Compound I-368] and answer again.
Solution: 0.101 to 0.5 µM

Exercise: Similarly, C=CC(=O)Nc1cc(C)ccc1Nc1nc(Nc2cc(OC)ncc2Cl)ncc1C(F)(F)F [Compound I-351] ?
Solution: 0.501 to 0.999 µM

Exercise: Likewise for C=CC(=O)Nc1cc(C)ccc1Nc1nc(Nc2ccnc(F)c2)ncc1C(F)(F)F [Compound I-288] ?
Solution: 0.101 to 0.5 µM

Exercise: Entry to check: C=CC(=O)Nc1cc(O[C@H](C)C(=O)N2CCN(C(C)=O)CC2)ccc1Nc1nc(Nc2cc(OC)ncc2C)ncc1C(F)(F)F [Compound I-409]
Solution: 0.501 to 0.999 µM

Exercise: Similarly, C=CC(=O)Nc1cc(C)ccc1Nc1nc(Nc2cc(OC)ncc2CF)ncc1C(F)(F)F [Compound I-429] ?
Solution: 0.501 to 0.999 µM

Exercise: Consider next the compound C=CC(=O)Nc1cc(C)ccc1Nc1nc(Nc2cc(OC)ncc2C(F)F)ncc1C(F)(F)F [Compound I-431] in the same way.
Solution: 0.501 to 0.999 µM

Exercise: Cool, now C=CC(=O)Nc1cc(C)ccc1Nc1nc(Nc2cnc(OC)cc2C)ncc1C(F)(F)F [Compound I-350]
Solution: > 1 µM

Exercise: Cool, now C=CC(=O)Nc1cc(C)ccc1Nc1nc(Nc2nc(O)ncc2C)ncc1C(F)(F)F [Compound I-364]
Solution: 0.101 to 0.5 µM

Exercise: Likewise for C=CC(=O)Nc1cc(CN2CCN(S(C)(=O)=O)CC2)ccc1Nc1nc(Nc2cc(OC)ncc2C)ncc1C(F)(F)F [Compound I-384] ?
Solution: < 0.1 µM

Exercise: Here is the next compound: C=CC(=O)Nc1cc(C)ccc1Nc1nc(Nc2cc(OCC)ncc2C)ncc1C(F)(F)F [Compound I-358]
Solution: 0.501 to 0.999 µM
